FYI, the data here is from PubChem BioAssay (NCATS).

The entries below come with measured activity, negative = inhibition values attached.
- assay protocol: Stat Signaling Pathway (AID 446);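 further: ME-180 cervical cancer cells given 40 pM IL-6 alongside compound; SIE-controlled beta-lactamase reporter measured as 460/530 nm FRET emission ratio; on the % scale 0 is the no-effect control and ±100 the full control effect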
- condition parameters: ME-180 (cervical carcinoma) SIE beta-lactamase reporter, IL-6 stimulated, 5 h; at 7.69 µM (top of the series) unless noted
Results filed as inconclusive are left out. Calls of active or inactive are those of the source. The call rests on the fitted dose curve; in most records, active means well fitted curve in either direction with a large enough effect (not every such curve was filed as active); inconclusive means small, poorly fitted or top-dose-only effect, or another doubt; inactive means flat fitted curve, though single readings scatter.

compound_smiles=COc1ccc(-c2nc3cnc(N4CCOCC4)nc3n(C)c2=O)cc1 property_name="activity, negative = inhibition" result="-2.93% (inactive)"
compound_smiles=CC(C)NC(=O)N1CCC2(CC1)CCN(C(=O)c1cc(C(F)(F)F)cc(C(F)(F)F)c1)CC2 property_name="activity, negative = inhibition" result="-9.32% (inactive)"
compound_smiles=O=C(Nc1ccccc1)N1CC[C@@]2(CCCN(C(=O)c3cnccn3)C2)C1 property_name="activity, negative = inhibition" result="-0.789% (inactive)"
compound_smiles=COc1ccc(Oc2ncc3nc(-c4ccc(OC)cc4)c(=O)n(C4CC4)c3n2)cc1 property_name="activity, negative = inhibition" result="-1.53% (inactive)"
compound_smiles=CN(C)C(=O)c1ccc(-c2nc(NC3CCNCC3)c3ccccc3n2)cc1 property_name="activity, negative = inhibition" result="11.2% (inactive)"
compound_smiles=Cc1cnc(CNc2ncncc2-c2ccccc2C(F)(F)F)cn1 property_name="activity, negative = inhibition" result="-1.72% (inactive)"
compound_smiles=COc1cccc(Nc2ncc3nc(C)c(=O)n(CCc4ccccc4)c3n2)c1 property_name="activity, negative = inhibition" result="-6.89% (inactive)"
compound_smiles=Cc1nc2cnc(N3CCN(C)CC3)nc2n(CCC#N)c1=O property_name="activity, negative = inhibition" result="-9.15% (inactive)"
compound_smiles=Cc1noc(C)c1-c1nccc(NCc2cccnc2)n1 property_name="activity, negative = inhibition" result="10.1% (inactive)"
compound_smiles=COc1ccc(NC(=O)N2CCCC3(CCNCC3)C2)cc1 property_name="activity, negative = inhibition" result="5.73% (inactive)"

Q. Supply reported activity, negative = inhibition belonging to this compound: `CCSC(N)=Nc1ccc(C(F)(F)F)cc1`
A. 13.4% [at 38 µM] (inactive)
